IC50 values recorded for UniProtKB Q9N1N9
Sequence (Q9N1N9 whole entry): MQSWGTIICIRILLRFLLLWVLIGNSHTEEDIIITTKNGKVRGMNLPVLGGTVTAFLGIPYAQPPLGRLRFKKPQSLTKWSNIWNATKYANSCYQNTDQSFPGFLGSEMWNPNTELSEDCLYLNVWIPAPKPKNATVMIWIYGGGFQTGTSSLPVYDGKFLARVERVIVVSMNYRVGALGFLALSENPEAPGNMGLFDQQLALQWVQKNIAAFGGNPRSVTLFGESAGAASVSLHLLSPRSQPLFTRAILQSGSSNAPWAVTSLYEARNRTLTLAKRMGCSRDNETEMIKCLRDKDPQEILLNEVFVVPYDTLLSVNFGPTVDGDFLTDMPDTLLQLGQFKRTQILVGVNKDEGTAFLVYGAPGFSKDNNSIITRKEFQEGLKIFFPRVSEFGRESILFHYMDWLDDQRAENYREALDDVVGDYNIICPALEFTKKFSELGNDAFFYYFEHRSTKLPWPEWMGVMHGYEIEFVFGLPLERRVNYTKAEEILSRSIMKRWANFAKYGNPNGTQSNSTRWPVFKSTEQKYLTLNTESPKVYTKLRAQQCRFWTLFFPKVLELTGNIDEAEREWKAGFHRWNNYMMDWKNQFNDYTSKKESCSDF
Just the number please, in µM, no unit attached.

Return reported IC50; argument: CC1CCN(c2nccc(NCc3ccccc3)n2)CC1
3.4

Return reported IC50; argument: CC1CCN(c2nccc(NCCc3ccccc3)n2)CC1
17.7

Return reported IC50; argument: c1ccc2c(NCCCCCCCNc3c4c(nc5ccccc35)CCCC4)c3c(nc2c1)CCCC3
0.01

----------
pIC50 values recorded for Acetylcholinesterase (Homo sapiens, UniProt P22303)
The value called pIC50 is obtained by taking minus log10 of the concentration in mol/L.

Return reported pIC50; argument: c1ccc(CCNc2ccnc(N3CCOCC3)n2)cc1
4.71

Return reported pIC50; argument: CC1CCN(c2nccc(NCc3ccccc3)n2)CC1
4.74

Return reported pIC50; argument: CN1CCN(c2nccc(NCc3cccc4ccccc34)n2)CC1
4.76

Return reported pIC50; argument: c1ccc2c(CNc3ccnc(N4CCCC4)n3)cccc2c1
5.26

Return reported pIC50; argument: CC(=O)N1CCN(c2nccc(NCCc3ccccc3)n2)CC1
4.70

Return reported pIC50; argument: c1ccc(CCNc2ccnc(N3CCCC3)n2)cc1
5.01

Return reported pIC50; argument: CC(=O)N1CCN(c2nccc(NCc3ccccc3)n2)CC1
4.78

Return reported pIC50; argument: CC(C)C1CCN(c2nccc(NCc3ccccc3)n2)CC1
4.85

Return reported pIC50; argument: Fc1ccc(CN2CCN(c3nccc(NCc4ccccc4)n3)CC2)cc1
4.67

Return reported pIC50; argument: c1ccc(CNc2ccnc(N3CCSCC3)n2)cc1
4.63

Return reported pIC50; argument: c1ccc(CNc2ccnc(NC3CCN(Cc4ccccc4)CC3)n2)cc1
4.91

Return reported pIC50; argument: CC1CCN(c2nccc(NCCc3ccccc3)n2)CC1
5.06

Return reported pIC50; argument: [O-][S+]1CCN(c2nccc(NCc3ccccc3)n2)CC1
4.90

Return reported pIC50; argument: c1ccc(CCNc2ccnc(N3CCSCC3)n2)cc1
4.58

Return reported pIC50; argument: CC1CCN(c2nccc(NCc3cccc4ccccc34)n2)CC1
4.59

Return reported pIC50; argument: Clc1ccc(CN2CCN(c3nccc(NCc4ccccc4)n3)CC2)cc1
4.69

Return reported pIC50; argument: FC(F)(F)c1ccc(CN2CCN(c3nccc(NCc4ccccc4)n3)CC2)cc1
4.54
